biological target: Nucleoprotein (Influenza A virus (strain A/Wilson-Smith/1933 H1N1)); experiment: Binding affinity to Influenza A virus Nucleoprotein assessed as dissociation constant by MST assay
Sequence (P15682 whole entry): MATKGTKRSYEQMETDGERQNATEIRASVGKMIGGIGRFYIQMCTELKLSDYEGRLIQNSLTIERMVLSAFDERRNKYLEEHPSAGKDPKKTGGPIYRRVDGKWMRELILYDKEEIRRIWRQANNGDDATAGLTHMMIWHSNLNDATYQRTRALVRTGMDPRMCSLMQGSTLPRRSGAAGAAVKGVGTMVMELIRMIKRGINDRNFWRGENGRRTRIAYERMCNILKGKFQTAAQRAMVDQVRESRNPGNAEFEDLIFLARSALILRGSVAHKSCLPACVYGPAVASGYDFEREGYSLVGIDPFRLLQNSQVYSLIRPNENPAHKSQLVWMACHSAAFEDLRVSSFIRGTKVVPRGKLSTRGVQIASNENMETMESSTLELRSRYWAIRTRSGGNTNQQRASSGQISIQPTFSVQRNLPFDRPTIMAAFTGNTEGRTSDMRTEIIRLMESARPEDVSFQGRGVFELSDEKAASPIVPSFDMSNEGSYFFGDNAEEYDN
Measured Kd of individual entries
Number only, in µM; omit the unit.

INSERT INTO assay_data (compound, studytarget, uom, reportedresult) VALUES
  ('O=C(NCCCN1CCOCC1)c1ccccc1Nc1ccnc2ccc(Cl)cc12', 'Nucleoprotein (Influenza A virus (strain A/Wilson-Smith/1933 H1N1))', 'µM', 33);

Continue with the molecule presented below.
Ask | Entry O=C(O)c1ccccc1Nc1ccnc2cc(C(F)(F)F)ccc12 has what Kd?
Reply | 20.4

----------
experiment: Cytotoxicity against African green monkey Vero cells assessed as reduction in cell viability incubated for 48 hrs by MTT assay; format: toxicity, cell-based; details: chlorocebus sabaeus
readoutName: CC50 at 48 h

Here is how some compounds turned out for CC50 at 48 h.
INSERT INTO assay_data (compound, reportedresult) VALUES
  ('O=C(NCCCN1CCOCC1)c1ccccc1Nc1ccnc2ccc(Cl)cc12', '31.4 µM'),
  ('O=C(Nc1cccc([N+](=O)[O-])c1)c1ccccc1Nc1ccnc2cc(C(F)(F)F)ccc12', '> 100 µM');

Next, consider the following compound.
Ask | Dear colleague, I am looking for the recorded CC50 at 48 h of the following compound: O=C(O)c1ccccc1Nc1ccnc2cc(C(F)(F)F)ccc12
Reply | > 200 µM

----------
# reported inhibition at 12.5 µM; entries follow
test system: Influenza A virus; experiment: Antiviral activity against Influenza A virus A/WSN/33(H1N1) infected in MDCK cells assessed as inhibition of viral growth 12.5 uM pre-infected for 1 hr followed by compound addition and measured 24 hrs post infection by plaque assay relative to control; format: functional; conditions: time 23 hrs
Return type: number; implicit unit %.

Some entries whose results are on file:
INSERT INTO assay_data (compound, uom, reportedresult) VALUES
  ('O=C(NC1CCCCC1)c1ccccc1Nc1ccnc2cc(C(F)(F)F)ccc12', '%', 41.3),
  ('O=C(CNC(=O)c1ccccc1Nc1ccnc2ccc(Cl)cc12)NC1CCCCC1', '%', 44.4),
  ('O=C(NCC(=O)N1CCN(c2cccc(Cl)c2Cl)CC1)c1ccccc1Nc1ccnc2ccc(Cl)cc12', '%', 24);

Shifting focus to the compound that follows.
Ask | Field request: inhibition at 12.5 µM | item: Cc1ccccc1N1CCN(C(=O)CNC(=O)c2ccccc2Nc2ccnc3ccc(Cl)cc23)CC1
Reply | 55.8

----------
assay: Selectivity index, ratio of CC50 for cytotoxicity against African green monkey Vero cells assessed as reduction in cell viability to IC50 for inhibition of Influenza A virus A/WSN/33(H1N1) Ribonucleoprotein transfected in Vero cells; assay type: toxicity, cell-based; conditions: read-out: Ratio CC50/IC50
readoutName: selectivity ratio

INSERT INTO assay_data (compound, readoutname, reportedresult) VALUES
  ('O=C(O)c1ccccc1Nc1ccnc2cc(C(F)(F)F)ccc12', 'selectivity ratio', '> 10'),
  ('O=C(Nc1cccc([N+](=O)[O-])c1)c1ccccc1Nc1ccnc2cc(C(F)(F)F)ccc12', 'selectivity ratio', '> 7');

// below: selectivity ratio requested for another compound
Ask | Would you kindly share the measured selectivity ratio for O=C(NCCCN1CCOCC1)c1ccccc1Nc1ccnc2ccc(Cl)cc12 ?
Reply | > 3

----------
assay: Cytotoxicity against MDCK cells assessed as reduction in cell viability incubated for 48 hrs by MTT assay; assay type: toxicity, cell-based, Canis lupus familiaris; conditions: dog
The following compounds are shown together with reported CC50 at 48 h values.

Reference set, count: 9
INSERT INTO results (compound, reportedresult) VALUES
  ('CCN(CC)CCCNC(=O)c1ccccc1Nc1ccnc2ccc(Cl)cc12', '38 µM'),
  ('O=C(NC1CCCCC1)c1ccccc1Nc1ccnc2cc(C(F)(F)F)ccc12', '> 50 µM'),
  ('O=C(Nc1ccccc1)c1ccccc1Nc1ccnc2cc(C(F)(F)F)ccc12', '> 100 µM'),
  ('O=C(NCCN1CCN(c2ccccc2OC(F)(F)F)CC1)c1ccccc1Nc1ccnc2ccc(Cl)cc12', '> 100 µM'),
  ('O=C(NCCCN1CCOCC1)c1ccccc1Nc1ccnc2cc(C(F)(F)F)ccc12', '> 100 µM'),
  ('O=C(NCc1ccccc1)c1ccccc1Nc1ccnc2ccc(Cl)cc12', '45.3 µM'),
  ('Cc1ccccc1N1CCN(C(=O)CNC(=O)c2ccccc2Nc2ccnc3ccc(Cl)cc23)CC1', '> 100 µM'),
  ('O=C(NCCN1CCN(c2ccccc2)CC1)c1ccccc1Nc1ccnc2ccc(Cl)cc12', '> 100 µM'),
  ('O=C(NCCN1CCN(c2cccc(Cl)c2Cl)CC1)c1ccccc1Nc1ccnc2ccc(Cl)cc12', '> 50 µM');

Ask | Field request: CC50 at 48 h | item: O=C(NCCCO)c1ccccc1Nc1ccnc2ccc(Cl)cc12
Reply | > 100 µM
